Where do the numbers come from? From ChEMBL document CHEMBL4689842.

Tested on: Fibroblast
Assay: Multiplex assay against human fibroblast
Assay type: toxicity, cell-based
Details: 12 h, 1 µM, compound concentration 1 uM, replicate 1
READOUT_NAME: Population Tubulin-Different-Phenotype (%)

{"MOLECULE": "CCc1nn(CCCN2CCN(c3cccc(Cl)c3)CC2)c(=O)n1CCOc1ccccc1.Cl [NEFAZODONE HYDROCHLORIDE]", "OBSERVED_MEASUREMENT": 75}
{"MOLECULE": "Cc1ccc2c(c1)c1c(n2CCc2ccc(C)nc2)CCN(C)C1 [LATREPIRDINE]", "OBSERVED_MEASUREMENT": 59}
{"MOLECULE": "CC(C)(C)NC[C@H](O)COc1nsnc1N1CCOCC1 [TIMOLOL]", "OBSERVED_MEASUREMENT": 25}
{"MOLECULE": "COc1ccc(-c2ccc3ncc4c(c3c2)n(-c2ccc(N3CCNCC3)c(C(F)(F)F)c2)c(=O)n4C)cn1.O=C(O)/C=C\\C(=O)O [BGT-226]", "OBSERVED_MEASUREMENT": 93}
{"MOLECULE": "CCOC(=O)Nc1cc(-c2ccc(C)c(NS(C)(=O)=O)c2)nn2c(C)nnc12", "OBSERVED_MEASUREMENT": 10}
{"MOLECULE": "COc1cc2ncn(-c3cc(OCc4ccccc4C(F)(F)F)c(C(N)=O)s3)c2cc1OC [GW843682X]", "OBSERVED_MEASUREMENT": 54}
{"MOLECULE": "COc1ccccc1CN[C@H]1C2CCN(CC2)[C@H]1C(c1ccccc1)c1ccccc1 [CP-96345]", "OBSERVED_MEASUREMENT": 52}
{"MOLECULE": "Cl.O=C(O)c1cc(-c2ccc(C3CCNCC3)cc2)c2ccc(-c3ccc(C(F)(F)F)cc3)cc2c1", "OBSERVED_MEASUREMENT": 21}
{"MOLECULE": "CN1CCN(Cc2ccc(Nc3ncc(Cl)c(Nc4ccccc4S(=O)(=O)N(C)C)n3)cc2)CC1 [DUBERMATINIB]", "OBSERVED_MEASUREMENT": 41}
{"MOLECULE": "CC(C)NC(=O)N1CC[C@H](NC2=Nc3cc(F)ccc3N(CC(F)F)c3ccc(Cl)cc32)C1", "OBSERVED_MEASUREMENT": 14}
{"MOLECULE": "C=CC(=O)Nc1ccc2[nH]c(=O)n(C3CCN(Cc4ccc(-c5nc6cc[nH]c(=O)c6cc5-c5ccccc5)cc4)CC3)c2c1 [Borussertib]", "OBSERVED_MEASUREMENT": 4}
{"MOLECULE": "C=CC(=O)Nc1cccc(Oc2nc(Nc3ccc(N4CCN(C)CC4)cc3OC)ncc2Cl)c1", "OBSERVED_MEASUREMENT": 45}
{"MOLECULE": "COc1cc(Nc2nccc(-c3cnn4nc(OC)ccc34)n2)cc(C(F)(F)F)c1", "OBSERVED_MEASUREMENT": 43}
{"MOLECULE": "Cc1cccc(CN2CCN(C(c3ccccc3)c3ccc(Cl)cc3)CC2)c1.Cl.Cl (configuration not stated)", "OBSERVED_MEASUREMENT": 44}
{"MOLECULE": "Cc1nc(N2CC[C@H](O)C2)ncc1-c1cc(C(F)(F)F)cc2[nH]ncc12", "OBSERVED_MEASUREMENT": 7}
{"MOLECULE": "Cc1c[nH]c2nccc(Oc3c(F)cc(Nc4cc(Cl)nc(N)n4)cc3F)c12 [BAY-549]", "OBSERVED_MEASUREMENT": 38}
{"MOLECULE": "CC(C)Oc1ccccc1C(=O)Nc1ccccc1C(=O)Nc1cccc(S(=O)(=O)C(F)(F)F)c1", "OBSERVED_MEASUREMENT": 62}
